assay: NCI Yeast Anticancer Drug Screen. Data for the rad50 strain (AID 155);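 also: 0% = growth of vehicle-only cultures of the same strain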; settings: S. cerevisiae rad50 strain growth inhibition; at 50.0 µM (retest, dose inferred, filed as 5.0); hits give high values
About 79,000 compounds went through this panel and 15% of them were active in at least one assay; those are over-represented in the sample as a whole.
REPORTED PROPERTY: growth inhibition (%)
Answers are plain numbers, in %.

COc1ccc(C(=O)Nc2ccccc2OC)cc1 ... 8
COc1ccc(N=Nc2ccc(O)cc2)cc1 ... 40
CCCCCCSC(=Cc1cccc[n+]1C)SCCCCCC ... 96
CCCCCC1OC(CCCCC)OC(CCCCC)O1 (stereo not given) ... 33
CCN(CC)CCNc1ccc2ncn3c4c(OC)ccc(=O)c4c(O)c1c23 ... 96
CC1CCCC(C(c2c[nH]c3ccccc23)c2c[nH]c3ccccc23)C1=O (stereo not given) ... 98
COC(=O)c1ccc([N+](=O)[O-])o1 ... 42
O=c1[nH]c(Cc2ccccc2)nc2c1sc1nc3ccccc3n12 ... 86
N#CCCN(CCC#N)Cc1cc(-c2ccccc2)ccc1O ... 55
O=C1C2Nc3ccccc3SC2C(=O)N1c1ccccc1C(F)(F)F (stereo not given) ... 35

Could you report growth inhibition for every entry in the following list?
1. CCC(CC)C1(C(=O)OCCN(CC)CC)CCCCC1
2. COC(=O)/C(C#N)=C1\NC(=O)CC(c2ccccc2)C1C#N (stereo not given)

OUTPUT:
48
20

Please look at the items below and tell me growth inhibition for each one, in order.
1. O=C(O)CCC(c1ccccc1)(c1ccccc1)c1ccccc1
2. CC(=O)Nc1ccc2c(ccc3cccc[n+]32)c1
3. Nc1nc2ccccc2cc1C(=O)O

OUTPUT:
1: 99; 2: 0; 3: -150

----------
Can you tell me growth inhibition for the items I'm about to list?
assay: NCI Yeast Anticancer Drug Screen. Data for the bub3 strain (AID 167); conditions: S. cerevisiae bub3 mutant strain, at 50.0 µM (retest, dose inferred, filed as 5.0), hits give high values
This is part of a sample that, as a whole, favours compounds with a hit. Of some 79,000 tested, about 15% had one in any assay.
Give bare numbers, in %.

COC1(OC)C2(Cl)C(Cl)=C(Cl)C1(Cl)C1C2C2CC1(C(=O)O)c1ccccc12 (stereo not drawn) ... 26
OC(c1ccccc1)(c1ccccc1)C1CCCCC1 ... 97
O=P(O)(CN1CCN(CP(=O)(O)c2ccccc2)CCN(CP(=O)(O)c2ccccc2)CC1)c1ccccc1 ... 72

For each of the items listed, what is its growth inhibition?
1. CCCCC1C(=O)N2c3ccccc3-c3ccccc3N2C1=O
2. CSc1cc(N)nc(N)n1
3. O=C(O)c1ccccc1C1c2ccccc2Oc2ccccc21
4. S=C(Nc1ccccn1)c1ccccn1
5. C=C1C(=O)OC2C(C)C3C=CC(=O)[C@@]3(C)C(OC(=O)/C(C)=C/C)C1[C@@H]2OC(C)=O (stereo partly drawn)

OUTPUT:
[10, -3, 17, 33, 93]

----------
assay: NCI Yeast Anticancer Drug Screen. Data for the cln2 rad14 strain (AID 165);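 also: 0% = growth equal to vehicle treated cultures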; details: S. cerevisiae cln2 rad14 strain, at 5.0 µM (retest, dose inferred, filed as 0.5), hits give high values
The panel holds about 79,000 compounds, 15% with a hit somewhere; the sample as a whole holds those more often.
REPORTED PROPERTY: growth inhibition (%)
Numbers only, in %.

O=C(Nc1ccccc1)c1ccccc1O ... -3
Nc1ccccc1[S][Sn]([c]1ccccc1)([c]1ccccc1)[c]1ccccc1 ... 98
C=C1C(=O)OC2/C=C(\C(=O)O)CC/C=C(\C)CC(OC(=O)/C=C(\C)CC)C12 (configuration not stated) ... -19
Cc1ccc(SCc2ccc(Cl)cc2Cl)nn1 ... 0
N#Cc1c(Cl)cc(Cl)n2c1nc1ccccc12 ... 43
C(=C/c1cnnc2ccccc12)/c1ccccn1 ... 0

# batch: return growth inhibition for each of the 4 compounds below
1. CC1=C(C(=O)Nc2ccc(Cl)c(Cl)c2)C(c2ccco2)C(C(=O)Nc2ccc(Cl)c(Cl)c2)=C(C)N1
2. CN(C)CCOC(=O)C1(CCC2CCCCC2)CCCCC1
3. Nc1ccc(/C=C2/c3ccccc3-c3nc4ccccc4cc32)cc1
4. NC(=O)CC1CCC(c2ccccc2)CC1 (configuration not stated)

OUTPUT:
24
-3
-4
2

meta.source: PubChem BioAssay (NCI)
